# system: dopamine D2 receptor (Homo sapiens (Human))
# Sequence (P14416 whole entry, species assumed): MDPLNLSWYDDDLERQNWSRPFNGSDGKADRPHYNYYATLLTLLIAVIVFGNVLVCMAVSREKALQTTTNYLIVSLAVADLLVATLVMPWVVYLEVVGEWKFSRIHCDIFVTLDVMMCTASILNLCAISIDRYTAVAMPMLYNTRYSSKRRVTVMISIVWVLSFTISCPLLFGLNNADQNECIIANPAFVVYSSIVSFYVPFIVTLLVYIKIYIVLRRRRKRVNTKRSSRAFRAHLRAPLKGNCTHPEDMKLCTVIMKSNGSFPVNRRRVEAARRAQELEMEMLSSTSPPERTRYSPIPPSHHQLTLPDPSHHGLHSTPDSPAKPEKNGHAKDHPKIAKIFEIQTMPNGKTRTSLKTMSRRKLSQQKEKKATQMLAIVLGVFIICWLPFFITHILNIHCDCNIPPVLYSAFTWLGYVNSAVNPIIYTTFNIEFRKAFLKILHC
# experimental_protocol: Radioligand binding assay, D2 receptor, HEK293T membrane homogenates
# Design: concentration or dose not given beside the values
# particulars: HEK293T membranes, [3H]Spiperone
outcome_measure: D2 Inhibition (%)

INSERT INTO assay_data (compound, numeric_readout) VALUES
  ('COc1cc2c(cc1O)[C@@H]1Cc3c(OC)ccc(OC)c3CN1CC2 [DC037030]', 74.27),
  ('COc1ccc(OC)c2c1C[C@H]1c3cc(O)c(O)cc3CCN1C2 [DC037035]', 84.30),
  ('COc1cc2c(c(OC)c1)CN1CCc3cc4c(cc3[C@@H]1C2)OCO4 [DC037078]', 39.50),
  ('COc1cc2c(cc1OC)[C@@H]1Cc3c(CO)c(OC)cc(OC)c3CN1CC2 [DC037076]', 1.02),
  ('COc1cc2c(c(OC)c1)CN1CCc3cc(OC)c(O)cc3[C@@H]1C2 [DC037079]', 83.31);

The values you see were collected from patent US9359372B2.
